Hey, just so you know, these numbers are from ChEMBL document CHEMBL1128727.

Target: Plasminogen (Homo sapiens, UniProt P00747)
Sequence (P00747 97-580 limits assumed): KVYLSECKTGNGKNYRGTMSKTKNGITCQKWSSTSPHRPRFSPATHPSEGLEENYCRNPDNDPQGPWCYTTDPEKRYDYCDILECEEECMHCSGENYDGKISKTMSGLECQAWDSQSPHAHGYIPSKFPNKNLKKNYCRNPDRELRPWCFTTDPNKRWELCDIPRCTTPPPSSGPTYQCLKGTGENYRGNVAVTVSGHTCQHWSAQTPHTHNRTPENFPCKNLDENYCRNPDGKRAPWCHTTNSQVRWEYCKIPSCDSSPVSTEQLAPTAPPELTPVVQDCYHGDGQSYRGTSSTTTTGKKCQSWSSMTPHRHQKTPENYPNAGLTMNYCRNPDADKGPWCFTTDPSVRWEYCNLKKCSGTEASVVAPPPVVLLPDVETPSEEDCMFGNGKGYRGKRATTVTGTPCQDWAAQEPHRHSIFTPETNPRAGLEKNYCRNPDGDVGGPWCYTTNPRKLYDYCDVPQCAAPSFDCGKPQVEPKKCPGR
Sequence (P00747 581-810 limits assumed): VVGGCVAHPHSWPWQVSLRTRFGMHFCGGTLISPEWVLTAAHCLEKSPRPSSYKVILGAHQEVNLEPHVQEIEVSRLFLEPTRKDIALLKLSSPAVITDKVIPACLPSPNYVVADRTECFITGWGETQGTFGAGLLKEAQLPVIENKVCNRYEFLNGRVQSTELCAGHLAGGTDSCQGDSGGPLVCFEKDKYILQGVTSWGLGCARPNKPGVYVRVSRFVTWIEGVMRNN
Assay: Binding affinity against Plasmin
measuredProperty: Ki (µM)
Report the value in µM with no unit label.

Data request: Quick check: Ki of CCC(C)(C)C(NC(=O)[C@@H]1CCCN1C(=O)[C@@H](NC(=O)OCc1ccccc1)C(c1ccccc1)c1ccccc1)B1O[C@@H]2CC3CC(C3(C)C)[C@]2(C)O1 (stereo partly specified) ?
Data returned: 17

----------
Molecular target: Prothrombin (Homo sapiens)
Assay: Binding affinity against thrombin
Listing of recorded Ki by entry.
Report the value in nM with no unit label.

These solved cases illustrate the format of a correct answer.
CC(C)C(NC(=O)[C@@H]1CCCN1C(=O)[C@@H](NC(=O)OCc1ccccc1)C(c1ccccc1)c1ccccc1)B1O[C@@H]2CC3CC(C3(C)C)[C@]2(C)O1 (stereo partly specified)    19
CCCCCC(NC(=O)[C@@H]1CCCN1C(=O)[C@H](Cc1ccccc1)NC(=O)OCc1ccccc1)B1O[C@@H]2CC3CC(C3(C)C)[C@]2(C)O1 (stereo in doubt; 3)    19
CC1(C)C2CC1[C@]1(C)OB(C(Cc3ccccc3)NC(=O)[C@@H]3CCCN3C(=O)[C@H](Cc3ccccc3)NC(=O)OCc3ccccc3)O[C@@H]1C2 (stereo partly specified)    18

Data request: Quick check: Ki of CCC(NC(=O)[C@@H]1CCCN1C(=O)[C@H](Cc1ccccc1)NC(=O)OCc1ccccc1)B1O[C@@H]2CC3CC(C3(C)C)[C@]2(C)O1 (stereo partly specified) ?
Data returned: 1000

Data request: Quick check: Ki of CCCCCC(NC(=O)[C@@H]1CCCN1C(=O)[C@H](Cc1ccccc1)NC(=O)OCc1ccccc1)B1O[C@@H]2CC3CC(C3(C)C)[C@]2(C)O1 (stereo in doubt; 21) ?
Data returned: 100

Data request: Quick check: Ki of COCCC[C@@H](NC(=O)[C@@H]1CCCN1C(=O)[C@@H](Cc1ccccc1)NC(=O)OCc1ccccc1)B1O[C@@H]2CC3CC(C3(C)C)[C@]2(C)O1 (stereo in doubt; 10) ?
Data returned: 7
